- MEASUREMENT NOTES: Metabolic stability in rat liver microsomes assessed as intrinsic clearance preincubation with compound followed by NADPH addition and measured after 45 mins by LC-MS/MS analysis
- Format: ADME, Microsome
- SETUP CONDITIONS: read-out: CLH
READOUT LABEL: microsomal CLint (µL/min/mg)

COMPOUND STRUCTURE STRING | READING
O=C1NCCc2c1cnn2-c1cccc(Cc2cc(F)cc(C(F)(F)F)c2)c1 | 48
O=C1NCCc2c1cnn2-c1cc(Cc2cccc(C(F)(F)F)c2)ccn1 | 46
CN1CCc2c(cnn2-c2cc(Cc3cc(F)cc(C(F)(F)F)c3)ccn2)C1=O | 33
Cc1nn(-c2ccnc(Cc3cc(F)cc(OC(F)F)c3)c2)c2c1C(=O)NCC2 | 63
O=C1NCCc2c1cnn2-c1ccnc(Cc2cc(F)cc(C(F)(F)F)c2)c1 | 25
O=C1NCCc2c1cnn2-c1ccnc(Cc2cc(F)c(Cl)c(C(F)(F)F)c2)c1 | 57
O=C1NCCc2c1cnn2-c1ccnc(Cc2cc(F)cc(C(F)F)c2)c1 | 37
Cc1nn(-c2cncc(Cc3cc(F)cc(C(F)(F)F)c3)c2)c2c1C(=O)NCC2 | 63
Cc1nn(-c2ccnc(Cc3cc(F)cc(C(F)(F)F)c3)c2)c2c1C(=O)NCC2 | 40
O=C1NCCc2c1cnn2-c1cc(Cc2cc(F)cc(C(F)(F)F)c2)ccn1 | 30

----------
- MEASUREMENT NOTES: Volume of distribution at steady state in cynomolgus monkey at 1 mg/kg,iv by LC-MS/MS analysis
- Type: ADME, organism-based, Macaca fascicularis
- SETUP CONDITIONS: in vivo, read-out: Vdss
READOUT LABEL: Vd (L/kg)

COMPOUND STRUCTURE STRING | READOUT LABEL | READING UNIT | READING
O=C1NCCc2c1cnn2-c1ccnc(Cc2cc(F)cc(C(F)(F)F)c2)c1 | Vd | L/kg | 1.4

----------
- MEASUREMENT NOTES: Metabolic stability in human liver microsomes assessed as intrinsic clearance preincubation with compound followed by NADPH addition and measured after 45 mins by LC-MS/MS analysis
- Assay type: ADME, Microsome
- SETUP CONDITIONS: read-out: CLH
Decision: microsomal CLint >= 20 µL/min/mg yields true (1), all other cases yield false (0).

COMPOUND STRUCTURE STRING | CLASS
O=C1NCCc2c1cnn2-c1cc(Cc2cccc(C(F)(F)F)c2)ccn1 | false (0)
O=C1NCCCc2c1cnn2-c1ccnc(Cc2cc(F)cc(C(F)(F)F)c2)c1 | true (1)
O=C1NCCc2c1cnn2-c1ccnc(Cc2cc(F)c(Cl)c(C(F)(F)F)c2)c1 | true (1)
O=C1NCCc2c1cnn2-c1cncc(Cc2cc(F)cc(C(F)(F)F)c2)c1 | false (0)
Cc1nn(-c2ccnc(Cc3cc(F)cc(OC(F)F)c3)c2)c2c1C(=O)NCC2 | true (1)
O=C1NCCc2c1cnn2-c1ccnc(Cc2cc(F)cc(C(F)F)c2)c1 | false (0)
Cc1nn(-c2ccnc(Cc3cc(F)cc(C(F)(F)F)c3)c2)c2c1C(=O)NCC2 | true (1)
CN1CCc2c(cnn2-c2cc(Cc3cc(F)cc(C(F)(F)F)c3)ccn2)C1=O | true (1)
Cc1nn(-c2ccnc(Cc3cc(F)cc(C(F)F)c3)c2)c2c1C(=O)NCC2 | true (1)

Hello, the source for this data is ChEMBL document CHEMBL5252665, in case you need it.
